Examples of molecules with documented normalized growth follow.
- assay-summary: chemical genetic growth profiling, strain panel (AID 1159580);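 also: tested at 20 µM; growth read once vehicle control cultures reached saturation at 30 °C; 1 = growth at the plate median or of vehicle wells; lower values mean less growth of the strain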
- conditions-used: S. cerevisiae deletion strains, growth OD, locus YEL061C, strain CIN8 (second series), hits give low values
Out of some 5,500 compounds screened, about 2,000 (36%) were called active. Roughly 18% stayed inconclusive and do not appear here. The list shows a part of the results.

Respond only with normalized growth recorded for Nc1nc2ncc(CNc3ccc(C(=O)N[C@@H](CCC(=O)O)C(=O)O)cc3)nc2c(=O)[nH]1 1 (inactive)

Respond only with normalized growth recorded for O=C(O)c1cc(=O)c2c(OCC(O)COc3cccc4oc(C(=O)O)cc(=O)c34)cccc2o1 0.964 (inactive)

***
Respond only with normalized growth recorded for CC[C@@H]1[C@@H](O)N2C3C[C@H]1C1C(O)[C@]4(C[C@@H]12)c1ccccc1N(C)[C@@H]34 (some centres undefined) 1.04 (inactive)

Respond only with normalized growth recorded for CN(Cc1cnc2nc(N)nc(N)c2n1)c1ccc(C(=O)NC(CCC(=O)O)C(=O)O)cc1 (centres undefined) 0.944 (inactive)

Respond only with normalized growth recorded for CC(=O)OCC(=O)[C@@]12OC(C)(C)O[C@@H]1CC1C3C[C@H](F)C4=CC(=O)C=C[C@]4(C)[C@@]3(F)[C@@H](O)C[C@@]12C (some centres undefined) 1.02 (inactive)

Respond only with normalized growth recorded for O=c1cccc2n1C[C@H]1CNCC2C1 1.01 (inactive)

Respond only with normalized growth recorded for Nc1nc(N)c2nc(CNc3ccc(C(=O)NC(CCC(=O)O)C(=O)O)cc3)cnc2n1 (centres undefined) 0.996 (inactive)

Respond only with normalized growth recorded for CCCN(CCC)C(=O)C(CCC(=O)O)NC(=O)c1ccccc1 (centres undefined) 0.965 (inactive)

Respond only with normalized growth recorded for O=C(O)c1cc(O)c(O)c(O)c1 1.02 (inactive)

----------
- assay-summary: chemical genetic growth profiling, strain panel (AID 1159580)
- conditions-used: S. cerevisiae deletion strains, growth OD, locus YKR091W, strain srl3, hits give low values
Among all 5,500 compounds or so, about 2,000 (36%) were called active. Roughly 18% stayed inconclusive and do not appear here. The list shows a part of the results.
measured-attribute: normalized growth
Just the number, please, no unit after it.

Respond only with normalized growth recorded for CC(=O)O[C@H]1CC[C@@]2(C)C(=CCC3C2CC[C@@]2(C)C3CC[C@@H]2C(C)CCCC(C)C)C1 (stereo partly drawn) 0.998

Respond only with normalized growth recorded for CO[C@@H]1[C@@H](O[C@@H]2O[C@H](C)[C@@H](O[C@H]3C[C@@](C)(O)[C@H](O)[C@H](C)O3)[C@H](N(C)C)[C@H]2O)[C@@H](CC=O)C[C@@H](C)[C@@H](O[C@H]2CC[C@H](N(C)C)[C@@H](C)O2)/C=C/C=C/C[C@H](C)OC(=O)C[C@H]1O 1.01

Moving on to the next molecule.
Respond only with normalized growth recorded for CC(=O)O[C@H]1CC[C@@]2(C)C(=CCC3C2CC[C@]2(C)C(=O)CCC32)C1 (stereo partly drawn) 1.03

----------
- assay-summary: chemical genetic growth profiling, strain panel (AID 1159580)
- conditions-used: S. cerevisiae deletion strains, growth OD, locus YJL154C, strain vps35
The campaign covered roughly 5,500 compounds. About 2,000 (36%) were called active. Another 18% or so got no clear call; they are omitted. Rule as the data show it: active = normalized growth mostly below about 0.91 (no sharp cut-off); inconclusive = no clear call, values can overlap the other calls; inactive = mostly above about 0.92. Some of the results follow.
Output constraint: value belongs to 1 (yes) = active, 0 (no) = inactive

Solved cases below.
Field: outcome | Entry: CCCN(CCC)CCc1cccc2c1CC(=O)N2 0 (no)

Field: outcome | Entry: Cc1ccc(C(C)C)cc2c(C)ccc1-2 0 (no)

Field: outcome | Entry: NCCCCN=C(N)N 0 (no)

Field: outcome | Entry: CCCc1cc(OC)c2c(c1)OCO2 0 (no)

Field: outcome | Entry: CN(Cc1cnc2nc(N)nc(N)c2n1)c1ccc(C(=O)NC(CCC(=O)O)C(=O)O)cc1 (stereo not drawn) 0 (no)

***
Field: outcome | Entry: CC[C@]12CCCN3CCc4c(n(c5ccccc45)C(=O)C1)[C@@H]32 0 (no)

Field: outcome | Entry: C#C[C@]1(O)CCC2C3CCc4cc(OC)ccc4C3CC[C@@]21C (stereo partly drawn) 0 (no)

----------
- assay-summary: chemical genetic growth profiling, strain panel (AID 1159580);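 also: tested at 20 µM; growth read once vehicle control cultures reached saturation at 30 °C; 1 = growth at the plate median or of vehicle wells; lower values mean less growth of the strain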
- conditions-used: S. cerevisiae deletion strains, growth OD, locus YLR418C, strain cdc73, hits give low values
About 2,000 (36%) of roughly 5,500 compounds were called active. Not shown: some 18% with an inconclusive outcome. The list shows a part of the results.
measured-attribute: normalized growth

# count of solved cases: 3
Respond only with normalized growth recorded for CCOC(N)=O 0.996 (inactive)

Respond only with normalized growth recorded for COc1cc2c(cc1O)CC1c3c(cc(O)c(OC)c3-2)CCN1C (stereo not given) 0.98 (inactive)

Respond only with normalized growth recorded for CN1CCc2cccc3c2C1Cc1ccc(O)c(O)c1-3 (stereo not given) 1.01 (inactive)

***
Respond only with normalized growth recorded for NCCCCN=C(N)N 1.01 (inactive)

Respond only with normalized growth recorded for COc1cc2c3cc1Oc1cc(ccc1O)OC1c4c(cc(OC)c(O)c4Oc4ccc(cc4)CC3N(C)CC2)CCN1C (stereo not given) 1.02 (inactive)

----------
- assay-summary: chemical genetic growth profiling, strain panel (AID 1159580);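 also: tested at 20 µM; growth read once vehicle control cultures reached saturation at 30 °C; 1 = growth at the plate median or of vehicle wells; lower values mean less growth of the strain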
- conditions-used: S. cerevisiae deletion strains, growth OD, locus YLR039C, strain RIC1
Out of some 5,500 compounds screened, about 2,000 (36%) were called active. Not shown: some 18% with an inconclusive outcome. Rule as the data show it: active = normalized growth mostly below about 0.91 (no sharp cut-off); inconclusive = no clear call, values can overlap the other calls; inactive = mostly above about 0.92. The list shows a part of the results.
Output constraint: value belongs to t (active), f (inactive)

Solved cases below.
Field: outcome | Entry: CC(COc1ccccc1)N(CCCl)Cc1ccccc1 (centres undefined) f

Field: outcome | Entry: CN1c2ccccc2C(=O)NC1c1cc(Br)cs1 (centres undefined) f

Field: outcome | Entry: COc1ccccc1-c1cc(=O)c2c(OC)cccc2o1 f

Field: outcome | Entry: S=c1[nH]c2ccccc2s1 f

Field: outcome | Entry: COc1cc(/C=C/C(=O)O)cc(OC)c1OC f

Field: outcome | Entry: COC(=O)c1cc(OC)c(OC)cc1NS(=O)(=O)c1ccc(C)cc1 f

Field: outcome | Entry: S=c1[nH]c2ccccc2[nH]1 f

Field: outcome | Entry: CC(=O)O[C@H]1CC[C@@]2(C)C(=CCC3C2CC[C@]2(C)C(=O)CCC32)C1 (some centres undefined) t

Field: outcome | Entry: O=c1[nH]cnc2ccc(Br)cc12 f

Field: outcome | Entry: CC1(C)C2CC(=O)O[C@@]3(C)C4=CC(=O)O[C@@H](c5ccoc5)[C@]4(C)CCC3[C@@]2(C)C=C[C@H]1O (some centres undefined) f

***
Field: outcome | Entry: CC(=O)Oc1cc(C)c2c(c1C(OC(C)=O)OC(C)=O)Oc1c(c(C)c(OC(C)=O)c3c1C(OC(C)=O)OC3=O)OC2=O (centres undefined) f

Field: outcome | Entry: O=C1CNC(=S)N1CCc1ccccn1 f

Field: outcome | Entry: COc1cc(N=Cc2ccc3c(c2)OCO3)c(OC)cc1Cl f

Field: outcome | Entry: O=C(O)CNCP(=O)(O)O f

----------
- assay-summary: chemical genetic growth profiling, strain panel (AID 1159580);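 also: tested at 20 µM; growth read once vehicle control cultures reached saturation at 30 °C; 1 = growth at the plate median or of vehicle wells; lower values mean less growth of the strain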
- conditions-used: S. cerevisiae deletion strains, growth OD, locus YBR021W, strain FUR4, hits give low values
The campaign covered roughly 5,500 compounds. About 2,000 (36%) were called active. Inconclusive results (about 18%) are left out. The list shows a part of the results.
measured-attribute: normalized growth
Just the number, please, no unit after it.

# count of solved cases: 3
Respond only with normalized growth recorded for CCOP(=S)(OCC)Oc1ccc2c(C)c(Cl)c(=O)oc2c1 0.97

Respond only with normalized growth recorded for O=C(O)CCCCC1SCC2NC(=O)NC21 (stereo unspecified) 0.977

Respond only with normalized growth recorded for CC(=O)O[C@H]1C[C@@H](OC(C)=O)C(C)(C)C2C[C@@H](OC(C)=O)[C@]3(C)C(CC[C@@]4(C)[C@H](c5ccoc5)C(=O)[C@H]5O[C@]543)[C@]21C (stereo partly specified) 0.966

***
Respond only with normalized growth recorded for CC[C@]12CCCN3CCc4c(n(c5ccccc45)[C@](O)(C(=O)OC)C1)[C@@H]32 0.998

Respond only with normalized growth recorded for CC(=O)C1=C(O)C2C3c4c[nH]c5cccc(c45)CC3C(C)(C)N2C1=O (stereo unspecified) 0.983

Respond only with normalized growth recorded for O=c1ccn([C@@H]2O[C@H](COP(=O)(O)OP(=O)(O)OP(=O)(O)O)[C@@H](O)[C@H]2O)c(=O)[nH]1 1.06

Respond only with normalized growth recorded for O=c1cccc2n1C[C@H]1CNCC2C1 1.03

Respond only with normalized growth recorded for COc1ccc(C[C@H](N)C(=O)N[C@@H]2[C@@H](CO)OC(n3cnc4c(N(C)C)ncnc43)[C@@H]2O)cc1 (stereo partly specified) 1

Respond only with normalized growth recorded for COS(C)(=O)=O 1

Respond only with normalized growth recorded for CC(=O)O[C@H]1CC[C@@]2(C)C(=CCC3C2CC[C@]2(C)C(=O)CCC32)C1 (stereo partly specified) 0.833

Respond only with normalized growth recorded for CCC(CCC(C)C1CCC2C3CC=C4C[C@@H](OC(C)=O)CC[C@]4(C)C3CC[C@]12C)C(C)C (stereo partly specified) 0.996

Respond only with normalized growth recorded for O=C(O)CNCP(=O)(O)O 0.992

Respond only with normalized growth recorded for CO[C@@H]1[C@@H](O[C@@H]2O[C@H](C)[C@@H](O[C@H]3C[C@@](C)(O)[C@H](O)[C@H](C)O3)[C@H](N(C)C)[C@H]2O)[C@@H](CC=O)C[C@@H](C)[C@@H](O[C@H]2CC[C@H](N(C)C)[C@@H](C)O2)/C=C/C=C/C[C@H](C)OC(=O)C[C@H]1O 1.03

Respond only with normalized growth recorded for CCOC(=O)CCCCCCCCCCCCC1C=CCC1 (stereo unspecified) 0.0914

Respond only with normalized growth recorded for CN=C1CN(O)C(c2ccccc2)=c2cc(Cl)ccc2=N1 1.06

Respond only with normalized growth recorded for NCCCCN=C(N)N 0.983

Respond only with normalized growth recorded for COP(=S)(OC)Oc1ccc(SC)c(C)c1 0.98

Respond only with normalized growth recorded for CC12CCC3C(CC=C4CC(O)CCC43C)C1CCC2=O (stereo unspecified) 0.752

Respond only with normalized growth recorded for CCCSP(=O)(OCC)SCCC 1

Respond only with normalized growth recorded for O=C(O)P(=O)(O)O 0.994

Respond only with normalized growth recorded for CC(C)C1=CC2=CCC3[C@](C)(CCC[C@]3(C)C(=O)O)C2CC1 (stereo partly specified) 1.03
